Assay: Cytotoxicity against human MCF7/ADM cells assessed as cell viability at 10 uM measured after 48 hrs by MTT assay relative to control
Format: cell-based
Conditions: read-out: Activity
readout_type: viability at 48 h, 10 µM

*Q* Which viability at 48 h, 10 µM is reported for this molecule? CCCN(C(=O)CCCCCCC(=O)N(CCC)[C@H]1CC2=CC(=O)O[C@]23C[C@H]1N1CCCC[C@H]13)[C@H]1CC2=CC(=O)O[C@]23C[C@H]1N1CCCC[C@H]13
*A* > 90%

###

Can you tell me inhibition at 10 µM for the items I'm about to list?
Biological target: ATP-dependent translocase ABCB1 (Homo sapiens, UniProt P08183)
Sequence (P08183 whole entry): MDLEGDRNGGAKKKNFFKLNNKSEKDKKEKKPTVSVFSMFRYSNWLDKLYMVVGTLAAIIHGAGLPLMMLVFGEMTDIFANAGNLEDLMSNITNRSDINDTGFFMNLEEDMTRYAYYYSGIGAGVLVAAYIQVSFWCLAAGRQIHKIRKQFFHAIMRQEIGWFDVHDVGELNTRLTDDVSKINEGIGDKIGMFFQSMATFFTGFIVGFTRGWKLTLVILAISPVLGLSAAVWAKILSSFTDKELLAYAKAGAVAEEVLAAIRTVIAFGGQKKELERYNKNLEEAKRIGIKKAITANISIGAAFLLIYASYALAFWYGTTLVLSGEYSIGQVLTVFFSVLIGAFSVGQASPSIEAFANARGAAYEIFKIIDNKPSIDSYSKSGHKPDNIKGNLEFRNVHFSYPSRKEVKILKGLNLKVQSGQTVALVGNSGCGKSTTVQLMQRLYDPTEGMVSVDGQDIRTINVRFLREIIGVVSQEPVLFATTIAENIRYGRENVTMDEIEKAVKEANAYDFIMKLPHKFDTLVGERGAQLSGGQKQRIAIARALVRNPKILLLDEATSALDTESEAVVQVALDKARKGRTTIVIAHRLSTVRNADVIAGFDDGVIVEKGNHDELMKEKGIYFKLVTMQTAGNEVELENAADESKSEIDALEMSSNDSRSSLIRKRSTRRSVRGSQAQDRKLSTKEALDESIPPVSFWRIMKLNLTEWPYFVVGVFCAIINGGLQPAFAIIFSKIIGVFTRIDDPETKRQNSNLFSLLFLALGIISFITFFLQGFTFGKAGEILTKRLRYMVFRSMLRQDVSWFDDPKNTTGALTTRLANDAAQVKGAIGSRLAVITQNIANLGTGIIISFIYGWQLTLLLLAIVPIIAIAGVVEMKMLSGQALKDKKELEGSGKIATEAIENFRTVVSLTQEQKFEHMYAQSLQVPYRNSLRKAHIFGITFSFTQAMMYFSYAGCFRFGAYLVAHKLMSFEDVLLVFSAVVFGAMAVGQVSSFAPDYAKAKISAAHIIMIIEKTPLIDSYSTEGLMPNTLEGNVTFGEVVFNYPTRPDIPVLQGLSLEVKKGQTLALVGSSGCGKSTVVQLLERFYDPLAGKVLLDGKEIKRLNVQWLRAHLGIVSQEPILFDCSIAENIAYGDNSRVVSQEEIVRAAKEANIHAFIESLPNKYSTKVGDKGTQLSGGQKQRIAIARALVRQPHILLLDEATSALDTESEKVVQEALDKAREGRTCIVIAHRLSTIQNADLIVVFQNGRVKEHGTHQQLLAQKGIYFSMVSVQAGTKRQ
Assay: Reversal of P-gp mediated multidrug resistance in human HepG2/Dox cells assessed as potentiation of doxorubicin-induced cell growth inhibition at 10 uM measured after 48 hrs by MTT assay (reference value: 24%)
Assay type: cell-based
The reply should be a number in %, with the unit left off.

*Q* GET /values?readout=inhibition at 10 µM&item= O=C1C=C2C=C[C@@H]3C[C@@]2(O1)[C@H]1CCCCN31
*A* 36

*Q* Endpoint output: inhibition at 10 µM of CCCN(C(=O)CCCCCC(=O)N(CCC)[C@H]1CC2=CC(=O)O[C@@]23C[C@@H]1N1CCCC[C@@H]13)[C@H]1CC2=CC(=O)O[C@@]23C[C@@H]1N1CCCC[C@@H]13 . Value?
*A* 78

*Q* Field request: inhibition at 10 µM | item: CCCN(C(=O)CCCCCCC(=O)N(CCC)[C@H]1CC2=CC(=O)O[C@@]23C[C@@H]1N1CCCC[C@@H]13)[C@H]1CC2=CC(=O)O[C@@]23C[C@@H]1N1CCCC[C@@H]13
*A* 81

*Q* Recorded inhibition at 10 µM for CCCN(C(=O)CCCCC(=O)N(CCC)[C@H]1CC2=CC(=O)O[C@@]23C[C@@H]1N1CCCC[C@@H]13)[C@H]1CC2=CC(=O)O[C@@]23C[C@@H]1N1CCCC[C@@H]13 , please?
*A* 79

*Q* I have this compound here, COc1ccc(CCN(C)CCCC(C#N)(c2ccc(OC)c(OC)c2)C(C)C)cc1OC (stereo unspecified) , and I need its recorded inhibition at 10 µM.
*A* 84

*Q* Quick check: inhibition at 10 µM of CCCN(C(=O)CCCCCCC(=O)N(CCC)[C@H]1CC2=CC(=O)O[C@]23C[C@H]1N1CCCC[C@H]13)[C@H]1CC2=CC(=O)O[C@]23C[C@H]1N1CCCC[C@H]13 ?
*A* 85

FYI, the data here is from ChEMBL document CHEMBL4311985.
